system.name: PD-1/PD-L1 (Homo sapiens (Human))
Sequence (Q9NZQ7 19-238): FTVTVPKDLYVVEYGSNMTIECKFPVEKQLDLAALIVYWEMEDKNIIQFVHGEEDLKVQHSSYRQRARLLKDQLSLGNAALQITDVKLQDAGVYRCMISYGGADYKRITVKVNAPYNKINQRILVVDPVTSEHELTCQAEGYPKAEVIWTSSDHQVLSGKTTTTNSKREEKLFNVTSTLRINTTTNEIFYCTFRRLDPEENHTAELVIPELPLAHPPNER
run.description: Cisbio HTRF binding assay, PD-1/PD-L1 small molecule inhibitor screening
condition.set: HTRF, PD-1 (HIS tag) / PD-L1 (hFc tag), 8-10 concentrations
parameter: pIC50
Numbers only, as −log10 of the molar value.

pIC50 reported for this compound CC(=O)NCCNCc1cc(Cl)c(OCc2cccc(-c3ccccc3)c2Br)cc1OCc1cccc(C#N)c1 [Example 2] : 7.21

Value source: patent US10815208B2
